Target: T1, mouse programmed cell death protein 1 Fc fusion protein (mPD-1-Fc), mPD-1 C60S (aa 25-167) (Mus musculus, UniProt Q02242, stabilised)
T1 construct: not cleaved; source: Expi293F, purified (Protein A, SEC; dimeric fraction); not shown: Fc (human), C-terminal, kept
Test: SPR; Carterra LSA; Fab from the ammonium sulfate precipitate of the culture supernatant immobilised on a NiHC200M chip; hPD-1 (1-1024 nM) or mPD-1-Fc (4-1024 nM) as analyte, fourfold dilution series, no regeneration; HBS-EP pH 7.4, 25 °C; medians over the spots of a construct, KD = koff/kon
Conditions: one partner purified
pKd: −log10 of the molar value.
measured quantity: pKd

[[record]]
binder = "toripalimab Fab L.V99E (Fab, V domains shown, as the heavy chain of Sm3; light chain of Sm3 with this change; numbers count from the chain's first residue; source: Brevibacillus, culture supernatant (ammonium sulfate precipitate); not shown: 6xHis, C-terminal, kept; 6xHN, C-terminal, kept) VH: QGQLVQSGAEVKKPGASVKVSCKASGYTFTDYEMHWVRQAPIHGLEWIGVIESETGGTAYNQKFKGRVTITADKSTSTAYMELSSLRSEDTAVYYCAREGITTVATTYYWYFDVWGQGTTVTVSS VL: DVVMTQSPLSLPVTLGQPASISCRSSQSIVHSNGNTYLEWYLQKPGQSPQLLIYKVSNRFSGVPDRFSGSGSGTDFTLKISRVEAEDVGVYYCFQGSHEPLTFGQGTKLEIK"
measured = 6.70

[[record]]
binder = "toripalimab Fab L.T36A (Fab, V domains shown, as the heavy chain of Sm3; light chain of Sm3 with this change; numbers count from the chain's first residue; source: Brevibacillus, culture supernatant (ammonium sulfate precipitate); not shown: 6xHis, C-terminal, kept; 6xHN, C-terminal, kept) VH: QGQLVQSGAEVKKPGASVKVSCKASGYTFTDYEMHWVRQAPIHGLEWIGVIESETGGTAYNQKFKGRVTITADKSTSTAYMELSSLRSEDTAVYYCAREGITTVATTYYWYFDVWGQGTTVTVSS VL: DVVMTQSPLSLPVTLGQPASISCRSSQSIVHSNGNAYLEWYLQKPGQSPQLLIYKVSNRFSGVPDRFSGSGSGTDFTLKISRVEAEDVGVYYCFQGSHVPLTFGQGTKLEIK"
measured = 6.48

[[record]]
binder = "toripalimab Fab L.S25Y (Fab, V domains shown, as the heavy chain of Sm3; light chain of Sm3 with this change; numbers count from the chain's first residue; source: Brevibacillus, culture supernatant (ammonium sulfate precipitate); not shown: 6xHis, C-terminal, kept; 6xHN, C-terminal, kept) VH: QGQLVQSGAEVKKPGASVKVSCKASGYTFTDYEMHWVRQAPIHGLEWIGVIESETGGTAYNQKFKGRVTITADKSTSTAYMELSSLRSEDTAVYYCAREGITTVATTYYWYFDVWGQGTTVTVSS VL: DVVMTQSPLSLPVTLGQPASISCRYSQSIVHSNGNTYLEWYLQKPGQSPQLLIYKVSNRFSGVPDRFSGSGSGTDFTLKISRVEAEDVGVYYCFQGSHVPLTFGQGTKLEIK"
measured = 6.90

[[record]]
binder = "toripalimab Fab H.K63A (Fab, V domains shown, heavy chain of Sm3 with this change; numbers count from the chain's first residue; as the light chain of Sm3; source: Brevibacillus, culture supernatant (ammonium sulfate precipitate); not shown: 6xHis, C-terminal, kept; 6xHN, C-terminal, kept) VH: QGQLVQSGAEVKKPGASVKVSCKASGYTFTDYEMHWVRQAPIHGLEWIGVIESETGGTAYNQAFKGRVTITADKSTSTAYMELSSLRSEDTAVYYCAREGITTVATTYYWYFDVWGQGTTVTVSS VL: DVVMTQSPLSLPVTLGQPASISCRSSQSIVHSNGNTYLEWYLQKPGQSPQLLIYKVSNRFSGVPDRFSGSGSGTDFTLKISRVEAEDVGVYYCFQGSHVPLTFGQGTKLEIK"
measured = 7.15

[[record]]
binder = "toripalimab Fab L.S26A (Fab, V domains shown, as the heavy chain of Sm3; light chain of Sm3 with this change; numbers count from the chain's first residue; source: Brevibacillus, culture supernatant (ammonium sulfate precipitate); not shown: 6xHis, C-terminal, kept; 6xHN, C-terminal, kept) VH: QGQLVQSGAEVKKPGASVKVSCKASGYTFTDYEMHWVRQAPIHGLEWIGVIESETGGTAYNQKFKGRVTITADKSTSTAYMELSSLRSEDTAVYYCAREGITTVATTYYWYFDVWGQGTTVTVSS VL: DVVMTQSPLSLPVTLGQPASISCRSAQSIVHSNGNTYLEWYLQKPGQSPQLLIYKVSNRFSGVPDRFSGSGSGTDFTLKISRVEAEDVGVYYCFQGSHVPLTFGQGTKLEIK"
measured = 7.12

